- assayed_target: human CD33 S131M (human, UniProt P20138 18-364)
- Sequence (P20138 18-364 S131M limits assumed): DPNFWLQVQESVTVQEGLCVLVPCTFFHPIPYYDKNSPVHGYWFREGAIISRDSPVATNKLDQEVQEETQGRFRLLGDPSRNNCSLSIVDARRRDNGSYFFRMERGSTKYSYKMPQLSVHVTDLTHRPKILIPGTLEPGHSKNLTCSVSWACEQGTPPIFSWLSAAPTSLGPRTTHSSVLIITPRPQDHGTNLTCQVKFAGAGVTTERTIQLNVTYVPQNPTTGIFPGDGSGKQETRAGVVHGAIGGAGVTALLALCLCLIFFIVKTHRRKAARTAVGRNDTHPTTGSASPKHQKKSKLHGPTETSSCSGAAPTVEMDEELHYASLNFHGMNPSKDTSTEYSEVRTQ
- assay: flow cytometry, HEK293-T, IgG;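 note: CD33 point mutants transiently expressed, antibody binding measured by fluorescence in duplicate, background subtracted and scaled to binding on wild-type CD33 as 100%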
property_name: Mean % WT Binding (% WT binding)
A number alone suffices; assume % WT binding.

According to the records, this binder Refmab #2 (antibody, human IgG1, V domains shown, tested in IgG format) VH: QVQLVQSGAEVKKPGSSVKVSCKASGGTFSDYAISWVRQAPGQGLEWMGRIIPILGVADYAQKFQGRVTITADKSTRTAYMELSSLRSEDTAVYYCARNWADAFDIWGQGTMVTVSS VL: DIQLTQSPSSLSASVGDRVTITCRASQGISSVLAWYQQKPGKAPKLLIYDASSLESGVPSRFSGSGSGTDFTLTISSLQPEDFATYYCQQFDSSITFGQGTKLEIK displays Mean % WT Binding of 108

More entries:
Entry Refmab #1 (antibody, human IgG1, V domains shown, tested in IgG format; also called hP67.6) VH: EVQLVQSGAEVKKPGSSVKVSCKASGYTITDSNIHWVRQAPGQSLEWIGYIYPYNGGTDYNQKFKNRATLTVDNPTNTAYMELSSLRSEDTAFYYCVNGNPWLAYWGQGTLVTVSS VL: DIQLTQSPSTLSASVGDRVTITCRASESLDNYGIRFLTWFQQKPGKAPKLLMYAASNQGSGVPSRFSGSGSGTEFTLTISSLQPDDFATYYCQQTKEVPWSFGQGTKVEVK — recorded Mean % WT Binding = 105

Just so you know, measured Mean % WT Binding for Refmab #3 (antibody, human IgG1, V domains shown, tested in IgG format) VH: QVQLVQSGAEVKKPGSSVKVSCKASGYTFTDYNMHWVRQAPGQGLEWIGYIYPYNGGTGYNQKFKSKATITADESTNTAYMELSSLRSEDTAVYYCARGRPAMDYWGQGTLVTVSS VL: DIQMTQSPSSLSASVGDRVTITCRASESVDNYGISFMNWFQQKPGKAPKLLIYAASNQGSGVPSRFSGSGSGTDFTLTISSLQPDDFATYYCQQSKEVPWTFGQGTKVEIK came out at 91.9

Sample Refmab #4 (antibody, human IgG1, V domains shown, tested in IgG format) VH: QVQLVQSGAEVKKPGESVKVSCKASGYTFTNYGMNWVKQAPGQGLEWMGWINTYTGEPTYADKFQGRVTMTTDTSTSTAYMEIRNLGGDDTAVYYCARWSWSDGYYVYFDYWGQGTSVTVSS VL: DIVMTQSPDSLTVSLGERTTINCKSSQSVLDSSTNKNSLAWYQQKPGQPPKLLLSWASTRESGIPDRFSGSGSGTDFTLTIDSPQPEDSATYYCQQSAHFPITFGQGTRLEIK ; Mean % WT Binding observed: 97.6
